Values from paper PMC9782539

- Test system: MAO
- TEST PROTOCOL: MAO inhibitory activity (Holts method, rat liver mitochondrial enzyme); note: test concentration or dose not given here
- Format: biochemical
Kindly supply the reported Inhibition Rate of MAO (%) values for the records listed here.
Give your result in % as a bare value.

Given the entry COc1ccc2sc(NC(=O)CN3CCc4ccccc4[C@H]3c3ccccc3)nc2c1 [Compound 4k] , what Inhibition Rate of MAO (%) was observed with MAO?
17.75

Enter reported Inhibition Rate of MAO (%) observed with MAO for O=C(CN1CCc2ccccc2[C@H]1c1ccccc1)Nc1nc2c(Br)cc(Br)cc2s1 [Compound 4p]
19.80

So what Inhibition Rate of MAO (%) did O=C(CN1CCc2ccccc2[C@H]1c1ccccc1)Nc1nc2ccc(F)cc2s1 [Compound 4m] get with MAO?
9.76

# returns recorded Inhibition Rate of MAO (%) (system: MAO) for Cc1ccc2nc(NC(=O)CN3CCc4ccccc4[C@H]3c3ccccc3)sc2c1 [Compound 4i]
26.46

Return Inhibition Rate of MAO (%) measured with MAO given this compound: COc1ccc2nc(NC(=O)CN3CCc4ccccc4[C@H]3c3ccccc3)sc2c1 [Compound 4l]
11.34

Can you look up Inhibition Rate of MAO (%) on MAO for O=C(CN1CCc2ccccc2[C@H]1c1ccccc1)Nc1nc2c(Cl)cccc2s1 [Compound 4a] ?
14.93

Find Inhibition Rate of MAO (%) (MAO) for the entry O=C(CN1CCc2ccccc2[C@H]1c1ccccc1)Nc1nc2ccc(Cl)cc2s1 [Compound 4c]
21.59

Item O=C(CN1CCc2ccccc2[C@H]1c1ccccc1)Nc1nc2cc(Cl)ccc2s1 [Compound 4b] with MAO - Inhibition Rate of MAO (%)?
39.27
